Target: CAIX (UniProt Q16790 38-414)
pKd: −log10 of the molar value.
Rule: pKd of 8 or more gives t; anything lower gives f.

These solved cases illustrate the format of a correct answer.
Binder	Assigned Label
G9 (antibody, V domains shown) VH: QVQLQESGGGLVQPGGSLRLSCAASGFTFSSYAMSWVRQAPGKGLEWVSAISGSGGSTYYADSVKGRFTISRDNSKNTLYLQMNSLRAEDTAVYYCARSHSSGGFDYWGQGTLVTVSS VL: QSVLTQPPSVSGAPGQRVTISCTGSSSNIGRGYNVHWYQQLPGTAPKLLIYGNTNRPSGVPDRFSGSKSGTSASLAITGLQAEDEGDYYCQSYDSSLSAWVFGGGTKLTVLG	f
G10 (antibody, V domains shown) VH: QVQLVQSGGGLVQPGGSLRLSCAASGFPFSSYAMSWVRQAPGKGLEWVSAISANGGTTYYADSVKGRFTISRDNSKNTLYLQMNSLRAEDTAVYYCANNGNYRGAFDIWGQGTMVTVSS VL: QSVLTQPPSVSGAPGQRVTISCTGSSSNIGAGYDVHWYQQLPGTAPKLLIYGNSNRPSGVPDRFSGSKSGSSASLAITGLQAEDEAHYYCQSYDRSLSWVFGGGTKLTVLG	t

query: Threshold query (pKd >= 8) on G119 (antibody, V domains shown) VH: QVQLVQSGGGLVQPGGSLRLSCAASGFPFSSYAMSWVRQAPGKGLEWVSAISANGGTTYYADSVKGRFTISRDNSKNTLYLQMNSLRAEDTAVYYCANNGNYRGAFDIWGQGTMVIVSS VL: QSVLTQPPSVSGAPGQRVTISCTGSSSNIGAGYDVHWYQQLPGTAPKLLIYGNTNRPSGVPDRFSGSKSGTSASLAIIGLQADDEADYYCQSYDSTLRVWMFGGGTKLTVLG
result: t

query: Further, for G6 (antibody, V domains shown) VH: QVQLVQSGGGLVQPGGSLRLSCAASEFTFGTYAMTWVRQAPGKGLEWVSAVSGSGGSTYYADSVKGRFTISRDNSRNTLYLQMNSLRADDTAVYYCARGPVLRYGFDIWGQGTMVIVSS VL: QSVLTQPPSVSGAPGQRITISCTGSRSNIGADYDVHWYQQLPGTAPKLLIYANNNRPSGVPGRFSASKSGTSASLAISGLQAEDEADYYCQSYDSSLRAWVFGGGTKLAVLG ?
result: f

query: Further, for G40 (antibody, V domains shown) VH: QVQLVQSGGGLVQPGGSLRLSCAASGFTFSSYAMSWVRQAPGKGLEWVSAISGSGGSTYYADSVKGRFTISRDNSKNTLYLQMNSLRAEDTAVYYCATYGDYGSLDYWGQGTLVTVSS VL: QSVLTQPPSVSGAPGQRVTISCTGSSSNIGAGYDVHWYQQLPGTAPKLLIYANNNRPSGVPDRFSGSKSGTSASLAITGLQAEDEADYYCQSYDSSLRAWVFGGGTKLAVLG ?
result: f
